Origin of the recorded values: PubChem BioAssay (NCI)

Tested on: RXF 393 renal
EXPERIMENT SUMMARY: NCI-60 one-dose screen, 48 h
TEST SETTINGS: 10 µM unless noted
This is part of a sample that, as a whole, favours compounds with a hit. Of some 83,000 tested, about 20% had one in any assay. Activity calls are given as the source filed them. How the source made its calls: active means growth percent below 10; inactive means the rest.
Outcome (select one): t = active, f = inactive

Look over these answered cases.
COC1=CC(c2ccc[nH]2)=N/C1=C\c1[nH]c(C)c(C(=O)OC(C)C)c1C: t
CCCOC(=O)Nc1nc2ccc(SCC(C)C)cc2s1: f
O=C(C[C@]1(O)C(=O)Nc2ccccc21)c1cccc(C(F)(F)F)c1: f
Cn1ccnc1C(=O)/C=C/c1ccc(C(=O)Nc2ccccc2O)cc1: f
Cn1ccc(=O)c(C(=O)Nc2nsc3ccc([N+](=O)[O-])cc23)c1: f

# ---- query compound ----
Hey, what did the test say about COc1ccc(Nc2nnc(-c3ccc(OC)c(OC)c3)o2)cc1 ?
f
